experimental-protocol: P-glycoprotein substrates identified in KB-8-5-11 adenocarcinoma cell line, qHTS therapeutic library screen (AID 1346987); also: nearly all actives have a fitted effect of over 65% in size; also: potency is read from the fitted curve at half-maximal effect
condition-info: KB-8-5-11 (P-gp overexpressing) viability, CellTiter-Glo, 72 h; series mostly up to 44.5 µM
Inconclusive results are not listed. Active and inactive are the calls of the source. Calls follow the shape of the dose curve; as a rule, active = well fitted inhibition curve with a large enough effect; inconclusive = small, poorly fitted or top-dose-only effect; inactive = flat fitted curve, though single readings scatter.
attribute-measured: Potency

// known answers, use as guide
# compound, Potency
data = [
    ("COc1cc2c(c(OC)c1CC=C(C)C)C[C@H](c1ccc(O)cc1O)CO2", "inactive"),
    ("CC(=O)OC1C(=O)C2(C)C(O)CC3OCC3(OC(C)=O)C2C(OC(=O)c2ccccc2)C2(O)CC(OC(=O)C(O)C(NC(=O)c3ccccc3)c3ccccc3)C(C)=C1C2(C)C (centres undefined)", "1.3 µM (active)"),
    ("CN(C)c1nc(NC2CCC(NCCc3ccc(Br)cc3OC(F)(F)F)CC2)nc2ccccc12 (centres undefined)", "4.61 µM (active)"),
    ("COc1cc(/C=C/C(=O)O[C@H]2[C@H](O)[C@@H](CO)O[C@@]2(CO)O[C@H]2O[C@H](CO)[C@@H](O)[C@H](O)[C@H]2O)ccc1O", "inactive"),
]

Could you tell me which Potency is on file for O=C1OCc2cc3cccc(O[C@@H]4O[C@H](CO)[C@@H](O)[C@H](O)[C@H]4O)c3c(O)c21 ?
inactive

Could you tell me which Potency is on file for CC(C)C(NC(=O)c1ccc2ccccc2n1)C(=O)NC(CC(=O)O)C(=O)COc1c(F)cccc1F (centres undefined) ?
inactive

Could you tell me which Potency is on file for COC(=O)[C@@]1(c2ccc(C)cc2)C[C@H]1CN1CCC(O)(c2ccccc2)CC1 ?
inactive

Could you tell me which Potency is on file for O=C(/C=C/c1ccccc1)OC[C@]12O[C@H]1[C@@H](O)[C@@H]1C=CO[C@@H](O[C@@H]3O[C@H](CO)[C@@H](O)[C@H](O)[C@H]3O)[C@@H]12 ?
inactive

Could you tell me which Potency is on file for CC1=C(C(=O)O)/C(=C/CO[C@@H]2O[C@H](COC(=O)/C=C/c3ccc(O)cc3)[C@@H](O)[C@H](O)[C@H]2O)C(O)C1 (some centres undefined) ?
inactive

Could you tell me which Potency is on file for COc1cc(C2Oc3c(OC)cc(CCCO)cc3C2CO)ccc1O[C@H]1O[C@H](C)[C@@H](O)[C@H](O)[C@@H]1O (some centres undefined) ?
inactive

Could you tell me which Potency is on file for CC1C=CC2CCCCC2C1CCC1CC(O)CC(=O)O1 (centres undefined) ?
inactive

Could you tell me which Potency is on file for C[C@@H]1O[C@@H](O[C@H]2[C@@H]3C=CO[C@@H](O[C@@H]4O[C@H](CO)[C@@H](O)[C@H](O)[C@H]4O)[C@@H]3[C@@]3(CO)O[C@@H]23)[C@H](OC(=O)/C=C/c2ccccc2)[C@H](O)[C@H]1O ?
inactive

Could you tell me which Potency is on file for Nc1nc2c(ncn2[C@@H]2O[C@H](CO)[C@@H](O)[C@H]2O)c(=O)[nH]1 ?
inactive

###

System: NIH3T3
experimental-protocol: Cytotoxic Profiling of Annotated Libraries Using Quantitative High-Throughput Screening (AID 1296008); also: nearly all actives have a fitted effect of over 60% in size
condition-info: Five cell lines viability, CellTiter-Glo ATP luminescence, 48-72 h
Records with an inconclusive call do not appear. Activity calls are given as the source filed them. Calls come from the whole dose curve; as a rule, active = well fitted inhibition curve with a large enough effect; inconclusive = small, poorly fitted or top-dose-only effect; inactive = flat fitted curve, though single readings scatter.
API: response.call in YES = active, NO = inactive

Status in this test for CCN(Cc1cccnc1)C(=O)CN(c1ccc(OC)nc1)S(=O)(=O)c1ccccc1C ?
NO

Status in this test for C=C1C(=O)O[C@@H]2C/C(C)=C\C(=O)/C=C(\C)[C@@H](OC(=O)/C(C)=C\C)[C@H](O)[C@@H]12 ?
YES

Status in this test for C#CC[C@H](c1nc2cc(Cl)ccc2c(=O)n1Nc1ccccc1)N(CCCN)C(=O)c1cccc(Cl)c1F ?
YES

Status in this test for CO[C@H]1/C=C/[C@@](C)(O)/C=C/C(=O)O[C@H](C)[C@@H](C)CC/C=C/1C ?
YES

###

Record form. Attribute: max response. Fill in for each entry.
System: CRL-7250
experimental-protocol: Cytotoxic Profiling of Annotated Libraries Using Quantitative High-Throughput Screening (AID 1296008); also: nearly all actives have a fitted effect of over 60% in size; as to max response: % is scaled to controls: 0 for no effect and ±100 for the full control effect
condition-info: Five cell lines viability, CellTiter-Glo ATP luminescence, 48-72 h; stronger effect = lower value
Results filed as inconclusive are left out.
Numeric only. Scale: %

Could you tell me which max response is on file for C=C(C)C1Cc2cc(C(=O)OC3OC(CO)C(O)C(O)C3O)ccc2O1 (centres undefined) ?
-9

Could you tell me which max response is on file for CCC(C(=O)O)c1ccc(N2Cc3ccccc3C2=O)cc1 (centres undefined) ?
-5.22

Could you tell me which max response is on file for C/C=C1\[C@H](O[C@@H]2O[C@H](CO)[C@@H](O)[C@H](O)[C@H]2O)OC=C(C(=O)OC)[C@H]1CC(=O)O ?
-9.39

Could you tell me which max response is on file for C=C1C[C@]23C[C@H]1[C@@H](O)C[C@H]2[C@@]12C=C[C@H](O)[C@@](C)(C(=O)O1)[C@H]2[C@@H]3C(=O)O ?
0.0204

###

Tested on: CASKI
experimental-protocol: Primary qHTS to identify gynecologic anti-cancer compounds using libraries of approved drugs and bioactive compounds (AID 1345084); also: % is scaled to controls: 0 for no effect and ±100 for the full control effect; nearly all actives have a fitted effect of over 55% in size
condition-info: Gynecologic cancer cell panel viability, ATPlite luminescence, 48 h; series mostly up to 57.5 µM
Results filed as inconclusive are left out. Activity calls are given as the source filed them. Calls follow the shape of the dose curve; as a rule, active = well fitted cell-killing curve with a large enough effect; inconclusive = small, poorly fitted or top-dose-only effect, or effect the other way; inactive = flat fitted curve, though single readings scatter.
attribute-measured: activity change, negative = cytotoxicity

Could you tell me which activity change, negative = cytotoxicity is on file for CC1(C)CC[C@]2(C(=O)O)[C@H](O)C[C@]3(C)C(=CCC4[C@@]5(C)CC[C@H](O[C@@H]6O[C@H](CO[C@@H]7OC[C@H](O)[C@H](O)[C@H]7O[C@@H]7OC[C@@H](O)[C@H](O)[C@H]7O)[C@@H](O)[C@H](O)[C@H]6O[C@@H]6O[C@H](CO)[C@@H](O)[C@H](O)[C@H]6O)C(C)(C)C5CC[C@]43C)[C@@H]2C1 (some centres not stated) ?
15.8% [at 11.6 µM] (inactive)

Could you tell me which activity change, negative = cytotoxicity is on file for CC1(C)CC[C@]2(C(=O)OC3OC(CO)C(O)C(O)C3O)CC[C@]3(C)C(=CCC4[C@@]5(C)CC[C@H](OC6OC(C(=O)O)C(O)C(OC7OC(CO)C(O)C(O)C7O)C6O)C(C)(C)C5CC[C@]43C)C2C1 (some centres not stated) ?
5.34% [at 11.6 µM] (inactive)

Could you tell me which activity change, negative = cytotoxicity is on file for C=C(C)C1CCC2(C(=O)O[C@@H]3O[C@H](CO[C@@H]4O[C@H](CO)[C@@H](O)[C@H](O)[C@H]4O)[C@@H](O)[C@H](O[C@@H]4O[C@@H](C)[C@H](O)[C@@H](O)[C@H]4O)[C@H]3O)CCC3(C(=O)O)C(CCC4C5(C)CCC(O)C(C)(C)C5CCC43C)C12 (some centres not stated) ?
13.9% [at 11.6 µM] (inactive)

Could you tell me which activity change, negative = cytotoxicity is on file for CC1(C)CC[C@]2(C(=O)O[C@@H]3O[C@H](CO)[C@@H](O)[C@H](O)[C@H]3O)CC[C@]3(C)C(=CCC4[C@@]5(C)CC[C@H](O[C@@H]6O[C@H](C(=O)O)[C@@H](O)[C@H](O)[C@H]6O)C(C)(C)C5CC[C@]43C)C2C1 (some centres not stated) ?
-0.46% [at 11.6 µM] (inactive)

Could you tell me which activity change, negative = cytotoxicity is on file for CC1(C)CC[C@]2(C(=O)O[C@@H]3O[C@H](CO)[C@@H](O)[C@H](O)[C@H]3O)CC[C@]3(C)C(=CCC4[C@@]5(C)CC[C@H](O[C@@H]6O[C@H](C(=O)O)[C@@H](O)[C@H](O[C@@H]7O[C@H](CO)[C@H](O)[C@H](O)[C@H]7O)[C@H]6O)C(C)(C)C5CC[C@]43C)C2C1 (some centres not stated) ?
-0.547% [at 11.6 µM] (inactive)

Could you tell me which activity change, negative = cytotoxicity is on file for C[C@@H]1O[C@@H](O[C@H]2[C@H](O)[C@@H](O[C@@H]3O[C@H](CO)[C@@H](O)[C@H](O[C@@H]4O[C@H](CO)[C@@H](O)[C@H](O)[C@H]4O)[C@H]3O)[C@H](O[C@H]3CC[C@@]4(C)C(=CC[C@@H]5C4CC[C@@]4(C)C5C[C@@H]5OC6(CC[C@@](C)(CO[C@@H]7O[C@H](CO)[C@@H](O)[C@H](O)[C@H]7O)O6)[C@@H](C)[C@@H]54)C3)O[C@@H]2CO)[C@H](O)[C@H](O)[C@H]1O (some centres not stated) ?
-1.1% [at 6.55 µM] (inactive)

Could you tell me which activity change, negative = cytotoxicity is on file for CC1OC(OC2C(O)C(OC3CCC4(C)C(CCC5(C)C4CC=C4C6CC(C)(COC7OC(CO)C(O)C(O)C7O)CC(O)C6(C)CCC45C)C3(C)C)OC(C(=O)O)C2O)C(O)C(O)C1OC1OCC(O)C(O)C1O (configuration not stated) ?
-2.68% [at 11.6 µM] (inactive)
